Test system: MS2 coat protein
Assay: apparent KD of MS2 coat protein; designed switch direction (-1 OFF switch, 1 ON switch): 1; higher = weaker reporter binding
Settings: Eterna round: R95; input ligand: none
Catalogue of apparent KD of MS2 coat protein values
Express it in µM; write the number only.

// worked examples, apparent KD of MS2 coat protein included
sequence.data: UCAAGCGUUUGGCUCGUUUUAUGUGUUGAACAUGAGGAUCACCCAUGUAUUGUACGAUCCAGUUAGAUGGUAUUUUG [JR_SHM208A_Sub040] (puzzle: Sensor for hsa-mir-208a)
unit.descriptor: µM
apparent KD of MS2 coat protein: 0.0676

sequence.data: AGGAAGGAGACUGAGGAUAUCGUAAGGAGGACAUGAGGAUCACCCAUGUGUAUAGGAUUGGAGGACGAGAAGGCAGAGGAGUGGG [JR_SS2_Sub048] (puzzle: Same State 2)
unit.descriptor: µM
apparent KD of MS2 coat protein: 0.0265

sequence.data: GUAAAACAUGAGGAUCACCCAUGUCAACAAAGUCGAGGAUAUGGGCAAAUAAAAUAAGAACCAGAAGGCGAAUAAG [salish99_SS1_r3_009] (puzzle: Same State 1)
unit.descriptor: µM
apparent KD of MS2 coat protein: 1.29

sequence.data: AGUCCAGCAAGAGCUGGACAAAAGCAUGUACAUGAGGAUCACCCAUGUCAUGUACAAGCUUUUUGCUCGUCUUAAAA [Mat - hsa-mir-208a - Mod of JL - D3] (puzzle: Sensor for hsa-mir-208a)
unit.descriptor: µM
apparent KD of MS2 coat protein: 0.729

Next sequence, please.
Challenge: Report apparent KD of MS2 coat protein, nothing else, for this sequence: AAAAGAAGAAGUAAGGAUAUUCAAAAGAAAACAUGAGGAUCACCCAUGUACCAAAAGAAAGAAAAGAAGAAGGUACACAAGAAAA [Same State 2 #3] (puzzle: Same State 2)
Response given: 0.0228

---

System: MS2 coat protein
Experiment: apparent KD of MS2 coat protein; designed switch direction (-1 OFF switch, 1 ON switch): 1; higher = weaker reporter binding
Settings: input ligand: none
Catalogue of apparent KD of MS2 coat protein values
Express it in nM; write the number only.

// worked examples, apparent KD of MS2 coat protein included
sequence.data: ACAUGAGACCUAGGAUAUCUUGUACCUACAUGUGACAUGAGGAUCACCCAUGUGGUAAGUAUGAUAGAGAAGGAGGAGAUAUGU [Equivalance 55 - Jieux - Same State NG 2] (Eterna round: R96, puzzle: Same State NG 2)
apparent KD of MS2 coat protein (nM): 51.9

sequence.data: GUUACAUGAGGAUCACCCAUGUAUGUGUGGGAGUAAGUGUCUUAGGAUAUCUAUGAUUUAAUUUCAGAGAAGGAAGAUUGUUGU [JMF's solution 88] (Eterna round: R96, puzzle: Same State NG 3)
apparent KD of MS2 coat protein (nM): 109

sequence.data: GCCGGCUGGUGAGGAUAUGGCGCCUUGUUGGUGCCAGAAGGCAUGUCUAUUGACAUGAGGAUCACCCAUGUGUUGUCGUUGGCG [salish99_SSNG1_r04_612] (Eterna round: R96, puzzle: Same State NG 1)
apparent KD of MS2 coat protein (nM): 183

sequence.data: AUAUAACAUGAGGAUCACCCAUGUCUCUAAAGUCGAGGAUAUGGGCAGGUUAUAUCCGAACCAGAAGGCGGGUUAU [SS1 Teenbexe 8] (Eterna round: R96, puzzle: Same State 1)
apparent KD of MS2 coat protein (nM): 554

sequence.data: AUUAUUUCUGCAGGAUAUGAUUAACAUGAGGAUCACCCAUGUGGUGUUGUGAGUAAGGAGAGUGAUCAGAAGGGCAUUUUUUUU [JMF's solution 62] (Eterna round: R96, puzzle: Same State NG 2)
apparent KD of MS2 coat protein (nM): 313

Challenge: Tell me apparent KD of MS2 coat protein of AUUAUUAAUGCAGGAUAUGAUUAACAUGAGGAUCACCCAUGUGGUGUUGUGAGUAAGGAGAGUGAUCAGAAGGGCAGUUUUUUU [JMF's solution 8] (Eterna round: R96, puzzle: Same State NG 2) when tested on MS2 coat protein.
Response given: 262

Challenge: Tell me apparent KD of MS2 coat protein of GGGAGAGUUACAGGAUAUGGUGAGGAUUACCCACUAGAAGGGUAAACAUGUGAAUCGGACAUGAGGAUCACCCAUGUUGGGCGU (Eterna round: R96, puzzle: Same State NG 1) when tested on MS2 coat protein.
Response given: 203

Challenge: Tell me apparent KD of MS2 coat protein of GCUCGAUGAGCGGUUUACAUGAGGAUCACCCAUGUACAUGGGCAGGAUAUUUACGUGCUUUGUGUAGAGAAGGGCCCAUCGAGC [SameState NG3 #74] (Eterna round: R96, puzzle: Same State NG 3) when tested on MS2 coat protein.
Response given: 244

Challenge: Tell me apparent KD of MS2 coat protein of AAUUAAGAUUGAGGAUAUCACGUCGAAUAGACGUGAGAAGGCGAUCAUAACAUGAGGAUCACCCAUGUAUUACAUGAAUUAAUU [SSNG1/5-B1] (Eterna round: R96, puzzle: Same State NG 1) when tested on MS2 coat protein.
Response given: 32.3

meta.source: the supplement of paper PMC9170038
